FYI, the data here is from patent US11395867B2.

- Test method notes: In vivo testing of laser drilled melt extruded tube containing two sets of microparticles formulated with F108, plasma concentrations
- Parameters: species or system Sprague-Dawley rats
- Cond: male, Sprague-Dawley, plasma, 3 day, rat, subcutaneous laser drilled extruded tube implant, TMC278 109 mg/kg, compound 1 78 mg/kg, individual animals 1-4

>  <Compound>
Cc1cc(/C=C/C#N)cc(C)c1Nc1ccnc(Nc2ccc(C#N)cc2)n1 [TMC278, rilpivirine]

>  <concentration at 3 day>
0.485 ng/mL

$$$$
>  <Compound>
CC(C)CN(C[C@@H](O)[C@H](Cc1ccccc1)NC(=O)O[C@H]1CO[C@H]2OCC[C@H]21)S(=O)(=O)c1ccc2c(c1)OCO2 [compound 1]

>  <concentration at 3 day>
3.36 ng/mL

$$$$
